This collection of values is drawn from patent US20190336574A1.

TEST_TARGET: T1, His-SND1 (16-339), SN1/2 domains, wild type (human, UniProt Q7KZF4 16-339)
T1 construct: also called His6-SND1 harboring the SN1/2 domains; not shown: N-terminal His tag (His6, His8 or His) with TEV site, pQlink vector
T1 sequence: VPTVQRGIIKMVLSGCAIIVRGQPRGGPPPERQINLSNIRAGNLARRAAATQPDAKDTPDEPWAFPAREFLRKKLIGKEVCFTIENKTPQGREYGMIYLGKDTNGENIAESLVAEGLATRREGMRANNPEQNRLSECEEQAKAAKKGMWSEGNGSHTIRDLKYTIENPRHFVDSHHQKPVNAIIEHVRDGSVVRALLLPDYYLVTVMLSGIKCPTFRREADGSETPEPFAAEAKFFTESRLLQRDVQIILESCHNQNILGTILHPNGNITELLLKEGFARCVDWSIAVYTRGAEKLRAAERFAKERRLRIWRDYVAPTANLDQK
TEST_DETAILS: GST titration pull-down: GST-MTDH (386-407) on glutathione resin, SND1 (SN1/2) at 10, 3, 1, 0.5, 0.25, 0.12 (the sheet prints mM, paragraph 254 says µM), SDS-PAGE, Coomassie blue
Where no end group is shown, it is not given here.
READOUT_KIND: Estimated Binding Affinity

{"columns": ["BINDER", "VALUE_OBSERVED"],
 "data": [
  ["SSADPNSDWKAPAEEWGNWVDE (other, member of the group m64) [N395K]", "~0.8 µM"]
]}

Prompt: Item SSADPNSDWNDPAEEWGNWVDE (other, member of the group m64) [A396D] has what recorded Estimated Binding Affinity?
Completion: ~1.5 µM

Prompt: Item SSADPNSDWNAPAEEWGNWVDE (other, not fully specified (N-terminus), not shown: N-terminal GST tag with TEV site, pQlink vector) [GST-MTDH (386-407), wild type] has what recorded Estimated Binding Affinity?
Completion: ~1.2 µM

Prompt: Item SSADPNSDWNAPAEDWGLWVDE (other, member of the group m64) [E400D/N403L] has what recorded Estimated Binding Affinity?
Completion: ~0.9 µM
